Cited source for all entries: patent US20250066745A1

- assay_text: Luminescence activity assay of purified Gaussia luciferase mutants on coelenterazine derivative ZS2
- Format: biochemical
- Parameters: key: ratio of mutant luminescence intensity to wild-type Gaussia luciferase
- study_conditions: Substrate ZS2 (Table 16)
Quick rule for you: Activity of mutant relative to wild-type Gaussia luciferase without the signal peptide at 1 or higher means yes, lower means no.

State whether the measured Activity of mutant relative to wild-type Gaussia luciferase without the signal peptide reaches 1, counting equality as reaching it, for F26I V29A A30D A32V S33K T37E L40A: Gaussia luciferase mutant (protein, SIGNAL (1)..(17), Gaussia luciferase mutant) MGVKVLFALICIAVAEAKPTENNEDINIADVVKNFAETDADADRGKLPGKKLPLEVLKEMEANARKAGCTRGCLICLSHIKCTPKMKKFIPGRCHTYEGDKESAQGGIGEAIVDIPEIPGFKDLEPMEQFIAQVDLCVDCTTGCLKGLANVQCSDLLKKWLPQRCATFASKIQGQVDKIKGAGGD yes

State whether the measured Activity of mutant relative to wild-type Gaussia luciferase without the signal peptide reaches 1, counting equality as reaching it, for A42G Q152C T167G S170T G174N K178S A182Y G183A: Gaussia luciferase mutant (protein, SIGNAL (1)..(17), Gaussia luciferase mutant) MGVKVLFALICIAVAEAKPTENNEDFNIVAVASNFATTDLDGDRGKLPGKKLPLEVLKEMEANARKAGCTRGCLICLSHIKCTPKMKKFIPGRCHTYEGDKESAQGGIGEAIVDIPEIPGFKDLEPMEQFIAQVDLCVDCTTGCLKGLANVCCSDLLKKWLPQRCAGFATKIQNQVDSIKGYAGD yes

State whether the measured Activity of mutant relative to wild-type Gaussia luciferase without the signal peptide reaches 1, counting equality as reaching it, for K66N P84L E102A S103I A104G E110P D123N L124M V138D: Gaussia luciferase mutant (protein, SIGNAL (1)..(17), Gaussia luciferase mutant) MGVKVLFALICIAVAEAKPTENNEDFNIVAVASNFATTDLDADRGKLPGKKLPLEVLKEMEANARNAGCTRGCLICLSHIKCTLKMKKFIPGRCHTYEGDKAIGQGGIGPAIVDIPEIPGFKNMEPMEQFIAQVDLCDDCTTGCLKGLANVQCSDLLKKWLPQRCATFASKIQGQVDKIKGAGGD no

State whether the measured Activity of mutant relative to wild-type Gaussia luciferase without the signal peptide reaches 1, counting equality as reaching it, for F26C V29Y S33G A36I T37E L40T: Gaussia luciferase mutant (protein, SIGNAL (1)..(17), Gaussia luciferase mutant) MGVKVLFALICIAVAEAKPTENNEDCNIYAVAGNFIETDTDADRGKLPGKKLPLEVLKEMEANARKAGCTRGCLICLSHIKCTPKMKKFIPGRCHTYEGDKESAQGGIGEAIVDIPEIPGFKDLEPMEQFIAQVDLCVDCTTGCLKGLANVQCSDLLKKWLPQRCATFASKIQGQVDKIKGAGGD yes

State whether the measured Activity of mutant relative to wild-type Gaussia luciferase without the signal peptide reaches 1, counting equality as reaching it, for Q152H Q163T T167G S170D G174N A182M G183A: Gaussia luciferase mutant (protein, SIGNAL (1)..(17), Gaussia luciferase mutant) MGVKVLFALICIAVAEAKPTENNEDFNIVAVASNFATTDLDADRGKLPGKKLPLEVLKEMEANARKAGCTRGCLICLSHIKCTPKMKKFIPGRCHTYEGDKESAQGGIGEAIVDIPEIPGFKDLEPMEQFIAQVDLCVDCTTGCLKGLANVHCSDLLKKWLPTRCAGFADKIQNQVDKIKGMAGD no
